Assay read-out pIC50 on mitochondrial RNA-polymerase (POLRMT) (Mus musculus, UniProt Q8BKF1); records merged from the literature.
pIC50: −log10 of the molar value.

>  <molecule>
C[C@@H](Oc1ccc2c(-c3ccc(F)cc3Cl)ccnc2n1)C(=O)N1CCC[C@H](CC(=O)O)C1

>  <pIC50>
6.00 to 7.00

$$$$
>  <molecule>
O=C(COc1cc2oc(=O)cc(-c3ccccc3)c2cc1Cl)NC1CC1

>  <pIC50>
6.00 to 7.00

$$$$
>  <molecule>
COC(=O)C[C@@H]1CCCN(C(=O)[C@@H](C)Oc2ccc3c(-c4ccc(F)cc4Cl)cc(=O)oc3c2)C1

>  <pIC50>
7.00 to 7.70

$$$$
>  <molecule>
CC(Oc1ccc2c(-c3cccc(F)c3Cl)cc(=O)oc2c1)C(=O)N1CCCC(S(N)(=O)=O)C1 (stereo not shown)

>  <pIC50>
> 7.70

$$$$
>  <molecule>
CC(Oc1ccc2c(-c3ccccc3Cl)cc(=O)oc2c1)C(=O)N1CCCC(C)(C(=O)O)C1 (stereo not shown)

>  <pIC50>
> 7.70

$$$$
>  <molecule>
C[C@@H](Oc1ccc2c(-c3c(Cl)cc(F)cc3Cl)ccnc2c1)C(=O)N1CCCC[C@@H]1C

>  <pIC50>
7.00 to 7.70

$$$$
>  <molecule>
Cc1ccsc1-c1cc(=O)oc2cc(O[C@H](C)C(=O)N3CCC[C@H](CC(=O)O)C3)ccc12

>  <pIC50>
7.00 to 7.70

$$$$
>  <molecule>
C[C@@H](Oc1ccc2c(-c3ccc(F)cc3Cl)cc(=O)oc2c1)C(=O)Nc1ccnc(C(=O)O)c1

>  <pIC50>
> 7.70

$$$$
>  <molecule>
CC(Oc1ccc2c(-c3ccccc3Cl)cc(=O)oc2c1)C(=O)N(C)C (stereo not shown)

>  <pIC50>
7.00 to 7.70

$$$$
>  <molecule>
Cc1sccc1-c1ccnc2cc(O[C@H](C)C(=O)N3CCC[C@H](CC(=O)O)C3)ccc12

>  <pIC50>
6.00 to 7.00

$$$$
>  <molecule>
CC(Oc1ccc2c(-c3ccccc3Cl)cc(=O)oc2c1)C(=O)NC1CC1 (stereo not shown)

>  <pIC50>
> 7.70

$$$$
>  <molecule>
CNS(=O)(=O)C1CCCN(C(=O)C(C)Oc2ccc3c(-c4ccccc4Cl)cc(=O)oc3c2)C1 (stereo not shown)

>  <pIC50>
> 7.70

$$$$
>  <molecule>
C[C@@H](Oc1ccc2c(-c3ccccc3Cl)cc(Cl)nc2c1)C(=O)N1CCN(C(=O)CN)CC1

>  <pIC50>
5.00 to 6.00

$$$$
>  <molecule>
C[C@@H](Oc1ccc2c(-c3ccc(F)cc3Cl)ccnc2c1)C(=O)N(C)C

>  <pIC50>
6.00 to 7.00

$$$$
>  <molecule>
C[C@@H](Oc1ccc2c(-c3ccc(F)cc3Cl)cc(=O)oc2c1)C(=O)N1CCC[C@H](NC(=O)CCl)C1

>  <pIC50>
> 7.70

$$$$
>  <molecule>
CCOC(=O)C[C@H]1CCCN(C(=O)[C@@H](C)Oc2ccc3c(-c4c(C)cccc4C)ccnc3c2)C1

>  <pIC50>
> 7.70

$$$$
>  <molecule>
CC(Oc1ccc2c(-c3ccccc3)cc(=O)oc2c1)C(=O)Nc1ccc(CCO)cc1 (stereo not shown)

>  <pIC50>
6.00 to 7.00

$$$$
>  <molecule>
Cc1cccc(C)c1-c1ccnc2cc(O[C@H](C)C(=O)N3CCC[C@@H](CC(=O)O)C3)ccc12

>  <pIC50>
> 7.70

$$$$
>  <molecule>
C[C@@H](Oc1ccc2c(-c3ccc(F)cc3Cl)cc(=O)oc2c1)C(=O)Nc1ccc(C(=O)O)nc1

>  <pIC50>
> 7.70

$$$$
>  <molecule>
CC1CCCC(C)N1C(=O)[C@@H](C)Oc1ccc2c(-c3ccc(F)cc3Cl)ccnc2c1 (stereo partly shown)

>  <pIC50>
6.00 to 7.00

$$$$
>  <molecule>
Cc1ccccc1-c1cc(=O)oc2cc(OC(C)C(=O)N3CCC[C@@H](C(=O)N(C)C)C3)ccc12 (stereo partly shown)

>  <pIC50>
7.00 to 7.70

$$$$
>  <molecule>
CCc1ccccc1-c1ccnc2cc(O[C@H](C)C(=O)N3CCC[C@H](CC(=O)O)C3)ccc12

>  <pIC50>
7.00 to 7.70

$$$$
>  <molecule>
C[C@@H](Oc1ccc2c(-c3ccc(F)cc3Cl)ccnc2c1)C(=O)NC1CC1

>  <pIC50>
6.00 to 7.00

$$$$
>  <molecule>
C#Cc1ccccc1-c1ccnc2cc(O[C@H](C)C(=O)N3CCC[C@H](CC(=O)O)C3)ccc12

>  <pIC50>
7.00 to 7.70

$$$$
>  <molecule>
CC(C)(Oc1ccc2c(-c3ccccc3Cl)ccnc2c1)C(=O)N1CCC[C@H](CC(=O)O)C1

>  <pIC50>
5.00 to 6.00

$$$$
>  <molecule>
CCOC(=O)C(C)(C)Oc1ccc2c(-c3ccccc3)cc(=O)oc2c1

>  <pIC50>
6.00 to 7.00

$$$$
>  <molecule>
CC(Oc1ccc2c(-c3ccccc3)cc(=O)oc2c1)C(=O)N1CCCC(c2nn[nH]n2)C1 (stereo not shown)

>  <pIC50>
> 7.70

$$$$
>  <molecule>
CC(Oc1ccc2c(-c3ccccc3)cc(=O)oc2c1)C(=O)OC(C)(C)C (stereo not shown)

>  <pIC50>
6.00 to 7.00

$$$$
>  <molecule>
CC(C)(C)OC(=O)COc1cc2oc(=O)cc(-c3ccccc3)c2cc1Cl

>  <pIC50>
5.00 to 6.00

$$$$
>  <molecule>
CC(C)NC(=O)C(C)Oc1ccc2c(-c3cccc(F)c3Cl)cc(=O)oc2c1 (stereo not shown)

>  <pIC50>
> 7.70

$$$$
>  <molecule>
CC(C)OC(=O)[C@@H](C)Oc1ccc2c(-c3ccccc3Cl)cc(=O)oc2c1

>  <pIC50>
7.00 to 7.70

$$$$
